# experimental-protocol: Toxicity assay
# details: African green monkey, Vero-B4 cells (non-infected)
Entries and their CC50 at 4 days
observed-property: CC50 at 4 days

compound | assay-value
NC(=O)c1ncn([C@@H]2O[C@H](CO)[C@@H](O)[C@H]2O)n1 | > 1000 µM
CCN(CCO)CCCC(C)Nc1ccnc2cc(Cl)ccc12 (centres unmarked) [Hydroxychloroquine, hydroxychloroquine] | 49.6 µM

---

# Test system: Vero-B4 cells
# experimental-protocol: Toxicity assay
# details: read-out: CC50 (µM) Vero-B4; non-infected Vero-B4 cells; MTS after 4 days
observed-property: CC50

molecule | assay-value
NC(=O)c1ncc[nH]c1=O [T-1105] | > 100 µM

---

# System: U138 cells
# experimental-protocol: Toxicity assay
# details: read-out: CC50 (µM) U138; non-infected U138 cells; MTS after 4 days
observed-property: CC50

entry-smiles | assayed-target | observed-property | assay-value
NC(=O)c1ncc[nH]c1=O | U138 cells | CC50 | > 100 µM

---

Entries and their IC50
# System: wt CHIKV^Brazil
# experimental-protocol: IC50 evaluation: inhibition of CHIKV-induced cell death
# Type: cell-based, Chikungunya virus
# details: Chikungunya virus, 96 h, read-out: IC50 (µM) U138

molecule | IC50, µM
CCN(CCO)CCCC(C)Nc1ccnc2cc(Cl)ccc12 (centres unmarked) [Hydroxychloroquine, hydroxychloroquine] | 4.14
NC(=O)c1ncn([C@@H]2O[C@H](CO)[C@@H](O)[C@H]2O)n1 | 166
